target: D(2) dopamine receptor (Homo sapiens, UniProt P14416); test: Intrinsic activity at human dopamine D2S receptor expressed in HEK293 cells co-transfected with Galpha0i assessed as [35S]GTPgammaS binding after 30 mins by [35S]GTPgammaS incorporation assay relative to quinpirole; format: functional, cell-based
Sequence (P14416 whole entry, the tested form may be a part): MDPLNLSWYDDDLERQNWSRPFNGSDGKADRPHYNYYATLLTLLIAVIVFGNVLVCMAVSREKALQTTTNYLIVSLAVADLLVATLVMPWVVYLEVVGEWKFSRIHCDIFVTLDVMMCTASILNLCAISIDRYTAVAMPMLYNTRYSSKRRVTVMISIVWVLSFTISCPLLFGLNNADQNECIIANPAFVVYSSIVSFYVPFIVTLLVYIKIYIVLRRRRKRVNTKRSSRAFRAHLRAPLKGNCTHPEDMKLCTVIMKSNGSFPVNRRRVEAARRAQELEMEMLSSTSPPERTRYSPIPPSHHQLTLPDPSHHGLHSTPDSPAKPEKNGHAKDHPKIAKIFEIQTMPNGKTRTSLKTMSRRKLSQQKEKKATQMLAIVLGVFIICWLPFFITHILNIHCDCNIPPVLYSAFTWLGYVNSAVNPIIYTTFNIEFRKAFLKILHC
Property Name: Emax (%)

>>> meas_value("C#CC1=CC[C@@H](N(CCC)CCCCNC(=O)c2ccc(OCCCc3cn(CCCC)nn3)c(OC)c2)CO1")
92
>>> meas_value("CCCCn1cc(CCCOc2ccc(C(=O)NCCCCN(CCC)CCc3ccc(O)c4[nH]c(=O)ccc34)cc2OC)nn1")
87
>>> meas_value("CCCCn1cc(CCCOc2ccc(C(=O)NCCCCN(CCC)[C@H]3CCc4c(O)cccc4C3)cc2OC)nn1")
110
>>> meas_value("C#CC1=CC[C@H](N(CCC)CCCCNC(=O)c2ccc(-c3ccccc3)cc2)CC1")
100

====

target: D(2) dopamine receptor (Homo sapiens); experiment: Agonist activity at ARMS2-PK2-tagged human dopamine D2S receptor expressed in HEK293 cells co-expressing (EA)-tagged beta arrestin fusion protein assessed as recruitment of beta-arrestin-2 after 5 hrs by chemiluminescence assay; format: cell-based
pEC50: −log10 of the molar value.
Property Name: pEC50

Below: 2 compounds and their reported pEC50.
>>> meas_value("C#CC1=CC[C@@H](N(CCC)CCCCNC(=O)c2ccc(OCCCc3cn(CCCC)nn3)c(OC)c2)CO1")
6.42
>>> meas_value("CCCCn1cc(CCCOc2ccc(C(=O)NCCCCN(CCC)[C@H]3CCc4c(O)cccc4C3)cc2OC)nn1")
8.85

I: CCCCn1cc(CCCOc2ccc(C(=O)NCCCCN(CCC)[C@@H]3CCc4c(O)cccc4C3)cc2OC)nn1
II: CCCCn1cc(CCCOc2ccc(C(=O)NCCCCN(CCC)CCc3ccc(O)c4[nH]c(=O)ccc34)cc2OC)nn1
III: C#CC1=CC[C@H](N(CCC)CCCCNC(=O)c2ccc(OCCCc3cn(CCCC)nn3)c(OC)c2)CO1
Ask: Rank items: key pEC50, increasing. Answer by writing out the labels in the requested order.
Result: III, II, I
(III: 6.32, II: 6.85, I: 7.52)

====

assay: Displacement of [3H]prazosin from poricne cerebral cortex alpha1 adrenergic receptor by scintillation counting analysis; type: tissue-based, Sus scrofa
Property Name: Ki (nM)

Please review the following examples before continuing.
>>> meas_value("C#CC1=CC[C@H](N(CCC)CCCCNC(=O)c2ccc(OCCCc3cn(CCCC)nn3)c(OC)c2)CO1")
860
>>> meas_value("CCCCn1cc(CCCOc2ccc(C(=O)NCCCCN(CCC)CCc3ccc(O)c4[nH]c(=O)ccc34)cc2OC)nn1")
2400
>>> meas_value("C#CC1=CC[C@@H](N(CCC)CCCCNC(=O)c2ccc(-c3ccccc3)cc2)CC1")
620

P: CCCCn1cc(CCCOc2ccc(C(=O)NCCCCN(CCC)[C@H]3CCc4c(O)cccc4C3)cc2OC)nn1
Q: CCCCn1cc(CCCOc2ccc(C(=O)NCCCCN(CCC)[C@@H]3CCc4c(O)cccc4C3)cc2OC)nn1
R: C#CC1=CC[C@H](N(CCC)CCCCNC(=O)c2ccc(-c3ccccc3)cc2)CC1
S: C#CC1=CC[C@@H](N(CCC)CCCCNC(=O)c2ccc(OCCCc3cn(CCCC)nn3)c(OC)c2)CO1
Ask: Order the records so the highest Ki appears first and the lowest last. Please list the labels according to the requested order.
Result: R, S, Q, P
(R: 1800 nM, S: 1000 nM, Q: 480 nM, P: 85 nM)

Cited source: ChEMBL document CHEMBL3576771
